- Test system: LXRa:RXRa (NR concentration 270 nM, RXRa partner concentration 90 nM)
- assay name: PBM binding z-score (relative to random genomic background probes); higher = stronger binding; sequences stand for … in GC…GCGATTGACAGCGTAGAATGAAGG
# class assignment by measured PBM binding z-score: range 1: < 1; range 2: ≥ 1 and < 2; range 3: ≥ 2

Worked examples, 8 sequences total:
polymer_sequence=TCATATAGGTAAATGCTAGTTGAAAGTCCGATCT category="range 1"
polymer_sequence=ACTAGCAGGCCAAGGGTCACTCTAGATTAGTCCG category="range 3"
polymer_sequence=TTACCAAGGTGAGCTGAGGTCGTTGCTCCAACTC category="range 2"
polymer_sequence=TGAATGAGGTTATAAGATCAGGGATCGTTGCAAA category="range 2"
polymer_sequence=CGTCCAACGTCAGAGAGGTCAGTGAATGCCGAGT category="range 2"
polymer_sequence=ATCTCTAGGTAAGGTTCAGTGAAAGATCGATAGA category="range 2"
polymer_sequence=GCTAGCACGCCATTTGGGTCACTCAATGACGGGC category="range 1"
polymer_sequence=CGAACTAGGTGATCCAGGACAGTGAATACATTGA category="range 1"

Category of "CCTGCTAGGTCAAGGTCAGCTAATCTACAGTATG" :
range 3

Tag the class for "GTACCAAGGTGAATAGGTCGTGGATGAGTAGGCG"
range 2

State the band of "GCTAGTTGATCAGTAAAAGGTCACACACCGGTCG"
range 3

Category of "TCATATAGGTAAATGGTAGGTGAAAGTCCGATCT" :
range 2

For the record "TCGAGAAGGTTAGGGGCATTCAGAATGGCGTCGA" , report the class its PBM binding z-score corresponds to.
range 1

Which bin, given its PBM binding z-score, does "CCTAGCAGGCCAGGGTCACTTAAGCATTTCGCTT" occupy?
range 2

Kindly identify the class of "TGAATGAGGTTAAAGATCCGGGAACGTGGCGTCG" .
range 2

###

- System: RARb homodimer (NR concentration 270 nM)
- assay name: PBM binding z-score (relative to random genomic background probes); higher = stronger binding; sequences stand for … in GC…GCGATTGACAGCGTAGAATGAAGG
Each item that follows carries a reported PBM binding z-score.
# answer = number (no unit)

Recorded PBM binding z-score, per entry:
polymer_sequence=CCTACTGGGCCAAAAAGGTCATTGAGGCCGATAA measured_parameter="PBM binding z-score" measured=4.37
polymer_sequence=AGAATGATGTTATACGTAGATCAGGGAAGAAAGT measured_parameter="PBM binding z-score" measured=-0.0497
polymer_sequence=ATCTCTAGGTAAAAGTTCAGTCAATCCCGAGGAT measured_parameter="PBM binding z-score" measured=2.54
polymer_sequence=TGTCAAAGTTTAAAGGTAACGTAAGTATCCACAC measured_parameter="PBM binding z-score" measured=1.36

Find the recorded PBM binding z-score belonging to "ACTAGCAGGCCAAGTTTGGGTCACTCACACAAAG" and report it.
2.45

# lookup: PBM binding z-score of "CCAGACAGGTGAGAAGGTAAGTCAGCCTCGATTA"
0.641

# lookup: PBM binding z-score of "TAGCCTAGGTCATTCAGGAGCCAGTATAGAAAGC"
2.45

Fill in the blank: the reported PBM binding z-score of "GGAACGAGGGCAAGTTGATAGAAGAGTTTGATGG" is ____.
1.5

Could you share which PBM binding z-score value was measured for "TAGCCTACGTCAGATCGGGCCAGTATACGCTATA" ?
-0.763

Bench note: what PBM binding z-score did "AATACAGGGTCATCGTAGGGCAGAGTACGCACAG" show?
3.67

# get_value(readout='PBM binding z-score', item= "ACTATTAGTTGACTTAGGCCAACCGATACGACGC" )
0.826

For the sequence "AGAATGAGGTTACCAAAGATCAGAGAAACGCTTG" , what PBM binding z-score is on record?
0.638

Any idea what PBM binding z-score was measured for "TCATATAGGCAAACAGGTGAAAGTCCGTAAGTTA" ?
0.521

Which PBM binding z-score is reported for this sequence? "TTACCAAGATGAAGGTCGTTGATCCCTCTGTAGA"
0.806

I would be grateful if you could share the reported PBM binding z-score for "TCATACAGGTAAAAGGTGAAAGTCGGTGTGGTAA" .
2.02

So what's the measured PBM binding z-score for this one? "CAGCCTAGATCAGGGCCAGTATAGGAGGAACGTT"
-0.147

Consider the sequence shown here: "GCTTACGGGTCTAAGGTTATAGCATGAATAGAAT" What is its recorded PBM binding z-score?
0.97

// query PBM binding z-score value for entry "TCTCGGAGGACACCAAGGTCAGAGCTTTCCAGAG"
3.68

Entry under review: "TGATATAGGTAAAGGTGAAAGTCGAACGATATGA" . Reported PBM binding z-score?
1.61

Please look up its PBM binding z-score: "ATATGTAGGTTATCGGGTTATTCAGTTTGCGCAT"
1.48

Item "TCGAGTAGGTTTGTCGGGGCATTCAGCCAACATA" has what recorded PBM binding z-score?
0.429

What PBM binding z-score value was documented for this sequence, "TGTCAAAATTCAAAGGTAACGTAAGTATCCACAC" ?
0.464

For the sequence "TCTTGTAGATCAACAGGAGGTAAAGAAAGATCGA" , what PBM binding z-score is on record?
-0.473

###

- Test system: RARa:RXR (NR concentration 270 nM, RXRa partner concentration 90 nM)
- assay name: PBM binding z-score (relative to random genomic background probes); higher = stronger binding; sequences stand for … in GC…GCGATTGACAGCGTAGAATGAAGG
Classify as follows. Reported PBM binding z-score greater than or equal to 2: true. Reported PBM binding z-score below: false.

Answered examples (6):
polymer_sequence=CCAGACAGGTGAAAGGTAACTAAGTCTGGTACGC category=false
polymer_sequence=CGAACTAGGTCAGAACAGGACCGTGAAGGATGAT category=false
polymer_sequence=CGTCCACGGTCATAGGAGGTCAGTGAAGACAGAT category=true
polymer_sequence=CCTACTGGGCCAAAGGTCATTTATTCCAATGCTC category=true
polymer_sequence=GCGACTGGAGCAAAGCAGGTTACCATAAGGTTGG category=false
polymer_sequence=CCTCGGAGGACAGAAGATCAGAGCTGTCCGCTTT category=false

Say whether "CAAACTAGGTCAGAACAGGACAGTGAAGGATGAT" shows PBM binding z-score of 2 or more.
false

Hi, just wondering whether "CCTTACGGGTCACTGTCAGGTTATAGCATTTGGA" shows PBM binding z-score of 2 or higher.
true

Does the sequence "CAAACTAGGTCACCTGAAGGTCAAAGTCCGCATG" have recorded PBM binding z-score that is 2 or more?
true

###

Quick reference: PBM binding z-score of the listed items.
- Tested on: FXR:RXRa (NR concentration 270 nM, RXRa partner concentration 90 nM)
- assay name: PBM binding z-score (relative to random genomic background probes); higher = stronger binding; sequences stand for … in GC…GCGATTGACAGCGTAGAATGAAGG
Hey, just send me the number, nothing else.

Before answering, review these 2 worked examples.
polymer_sequence=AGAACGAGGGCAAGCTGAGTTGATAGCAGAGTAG target_of_assay="FXR:RXRa (NR concentration 270 nM, RXRa partner concentration 90 nM)" measured=0.521
polymer_sequence=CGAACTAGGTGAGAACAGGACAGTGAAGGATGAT target_of_assay="FXR:RXRa (NR concentration 270 nM, RXRa partner concentration 90 nM)" measured=-0.071

For the sequence "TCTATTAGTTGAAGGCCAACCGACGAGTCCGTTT" , what PBM binding z-score is on record?
0.871

# lookup: PBM binding z-score of "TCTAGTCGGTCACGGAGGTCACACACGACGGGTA"
4.64

Dear colleague, I am looking for the recorded PBM binding z-score of the following sequence: "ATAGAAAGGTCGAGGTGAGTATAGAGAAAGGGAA"
4.25

###

- Test system: THRa:RXRa (NR concentration 90 nM, RXRa partner concentration 90 nM)
- assay name: PBM binding z-score (relative to random genomic background probes); higher = stronger binding; sequences stand for … in GC…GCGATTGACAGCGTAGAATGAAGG
Measured PBM binding z-score by item
Respond with the number and no other words.

Solved cases below.
polymer_sequence=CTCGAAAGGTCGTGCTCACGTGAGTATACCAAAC measured=2.41
polymer_sequence=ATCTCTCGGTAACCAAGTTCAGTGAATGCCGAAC measured=0.98
polymer_sequence=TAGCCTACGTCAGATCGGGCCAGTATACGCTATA measured=0.901
polymer_sequence=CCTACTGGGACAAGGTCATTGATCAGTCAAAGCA measured=3.47
polymer_sequence=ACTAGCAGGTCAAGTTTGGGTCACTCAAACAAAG measured=4.38

Let's switch to this sequence now.
Name the reported PBM binding z-score value associated with the sequence "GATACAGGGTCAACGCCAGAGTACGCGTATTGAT"
3.42
